The origin of these recorded values is patent US10144742B2.

Entries and their measured IC50 follow.
- experimental-target: UniProt P43490
- Sequence (P43490 whole entry): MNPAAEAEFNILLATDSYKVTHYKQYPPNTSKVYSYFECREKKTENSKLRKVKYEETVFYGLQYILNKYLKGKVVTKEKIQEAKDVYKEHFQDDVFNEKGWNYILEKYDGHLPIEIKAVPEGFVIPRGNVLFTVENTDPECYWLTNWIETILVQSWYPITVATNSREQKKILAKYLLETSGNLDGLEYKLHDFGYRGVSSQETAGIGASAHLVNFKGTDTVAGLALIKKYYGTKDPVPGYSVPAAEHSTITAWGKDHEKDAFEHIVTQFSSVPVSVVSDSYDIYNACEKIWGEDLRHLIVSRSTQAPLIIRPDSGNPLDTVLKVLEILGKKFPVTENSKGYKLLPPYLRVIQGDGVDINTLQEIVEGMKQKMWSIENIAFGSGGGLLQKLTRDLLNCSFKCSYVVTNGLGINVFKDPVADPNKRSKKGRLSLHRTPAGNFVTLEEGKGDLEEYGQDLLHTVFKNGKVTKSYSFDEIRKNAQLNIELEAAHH
- assay-explanation: NAMPT enzyme assay (TR-FRET/HTRF, BodiPY ligand, anti 6His-Tb)
- Format: binding
- assay-context: NAMPT IC50 range class; read-out: IC50
- Text: As discussed above, the invention provides compounds that are useful as inhibitors of the enzyme NAMPT. The NAMPT inhibition of a compound of the invention can be measured using a variety of methods known in the art. […] The TR-FRET signal can be measured using a high throughput microplate reader (e.g., Pherastar). […] The percent inhibition value at a single concentration of compound of the invention can be calculated relative to a control treated sample. […]

O=C(NCCCc1ncc[nH]1)c1ccc2nc(-c3ccc(F)cc3)c(-c3cccc(C(F)(F)F)c3)nc2c1 [Compound I-328]: 100 to 500 nM

Looking up O=C(NCCCn1ccnc1)c1ccc2nc(N3CCC4(CC3)OCCO4)c(-c3ccccc3)nc2c1 [Compound I-275] , I see its IC50 listed as < 100 nM

Form: molecule = COC1CN(c2nc3ccc(C(=O)NCCCn4ccnc4)cc3nc2-c2ccccc2)C1 [Compound I-59] ; IC50 = 1000 to 2000 nM

// O=C(NCCCc1ncc[nH]1)c1ccc2nc(-n3ccc4cnccc43)c(-c3ccc(F)cc3)nc2c1 [Compound I-389] : IC50 value = < 100 nM

Per the records, this molecule ( O=C(NCCCn1ccnc1)c1ccc2nc(-c3ccccc3)c(C3=CCOCC3)nc2c1 [Compound I-162] ) has IC50 equal to 1000 to 2000 nM

So for O=C(NCCCc1c[nH]cn1)c1ccc2nc(-c3ccc(F)cc3)c(-c3ccc(F)cc3)nc2c1 [Compound I-192] , the logged IC50 turned out to be 100 to 500 nM

Notebook: CCc1nc2ccc(C(=O)NCCCc3ncc[nH]3)cc2nc1-c1ccc(F)cc1 [Compound I-307] , IC50 read as 100 to 500 nM

So, COc1cccc(-c2nc3cc(C(=O)NCCc4cccnc4)ccc3nc2N2CCC(O)CC2)c1 [Compound I-67] ? Its IC50 was < 100 nM

// sample O=C(c1ccc2nc(-c3ccc(F)cc3)c(-c3ccc(F)cc3)nc2c1)N1CCC(c2ccncc2)C1 (stereo not drawn) [Compound I-98] , its IC50 was 1000 to 2000 nM

Entry O=C(NCCCc1nccs1)c1ccc2nc(N3CCC(O)CC3)c(-c3ccc(F)cc3)nc2c1 [Compound I-77] ; IC50 = 100 to 500 nM
